// provenance: patent US20120101032A1

Test system: hepatitis C replicon
PROCEDURE TEXT: hepatitis C replicon EC50 assay
Type: cell-based
SETTINGS: Hepatitis C virus; hepatitis C replicon; read-out: EC50
pEC50: −log10 of the molar value.
MEASURED PROPERTY: pEC50

pEC50 measured on CC(C)n1c(O[C@@H]2C[C@H]3C(=O)N[C@]4(C(=O)NS(=O)(=O)C5(C)CC5)C[C@H]4/C=C\CCCCC[C@H](NC(=O)OC(C)(C)C)C(=O)N3C2)nc2c(-c3nc(-c4ccc(OC(F)(F)F)cc4)cs3)cccc21 = < 7.00

Entry under test: CC(C)(C)OC(=O)N[C@H]1CCCCC/C=C\[C@@H]2C[C@@]2(C(=O)NS(=O)(=O)C2(C)CC2)NC(=O)[C@@H]2C[C@@H](Oc3nc4cccc(-c5nc(-c6ccccc6)cs5)c4s3)CN2C1=O . Its pEC50 was > 8.00

Recorded pEC50 (compound CC(C)n1c(O[C@@H]2C[C@H]3C(=O)N[C@]4(C(=O)NS(=O)(=O)C5(C)CC5)C[C@H]4/C=C\CCCCC[C@H](NC(=O)OC(C)(C)C)C(=O)N3C2)nc2c(-c3cnccn3)cccc21 ): > 8.00

Looking up CC(C)n1c(O[C@@H]2C[C@H]3C(=O)N[C@]4(C(=O)NS(=O)(=O)N(C)C)C[C@H]4/C=C\CCCCC[C@H](NC(=O)OC(C)(C)C)C(=O)N3C2)nc2c(-c3cncnc3)cccc21 , I see its pEC50 listed as > 8.00
